# ASSAY_TARGET: SMARCA2 (Homo sapiens)
# Construct: SMARCA2-HiBiT knock-in Hela monoclonal cell (CS302366) and SMARCA4-HiBiT knock-in Hela monoclonal cell (CS3023226) were purchased from Promega; host or cells: HeLa SMARCA2-HiBiT knock-in monoclonal cells (heterozygous knock-in)
# ASSAY: SMARCA2 HiBiT degradation assay in HeLa cells
# Assay type: cell-based
# PROTOCOL_CONDITIONS: 18 hours incubation, Nano-Glo HiBiT Lytic detection
READOUT_NAME: DC50

Task: Return reported DC50; argument: C[C@@H]1CN(CC2CCN(c3ccc(C(=O)NC4CCC(=O)NC4=O)c(F)c3)CC2)C[C@H](C)N1C(=O)N1CCN2c3cc(-c4ccccc4O)nnc3NC[C@H]2C1 (stereo partly drawn)
Result: < 100 nM

Task: Return reported DC50; argument: CC[C@]12CNc3nnc(-c4ccccc4O)cc3N1C[C@H](Oc1ccc(CN3CCN(c4ccc(C5CCC(=O)NC5=O)cc4)CC3)cn1)C2 (stereo partly drawn)
Result: < 100 nM

Task: Return reported DC50; argument: `Cn1nc(N2CCC(=O)NC2=O)c2ccc(N3CCC(CN4C[C@@H]5[C@H](C4)[C@H]5CN4CCN5c6cc(-c7ccccc7O)nnc6NC[C@H]5C4)CC3)cc21`
Result: < 100 nM

* * *

# ASSAY_TARGET: SMARCA4 (Homo sapiens, UniProt P51532)
# Construct: SMARCA2-HiBiT knock-in Hela monoclonal cell (CS302366) and SMARCA4-HiBiT knock-in Hela monoclonal cell (CS3023226) were purchased from Promega; host or cells: HeLa SMARCA4-HiBiT knock-in monoclonal cells (heterozygous knock-in)
# Sequence (P51532 whole entry): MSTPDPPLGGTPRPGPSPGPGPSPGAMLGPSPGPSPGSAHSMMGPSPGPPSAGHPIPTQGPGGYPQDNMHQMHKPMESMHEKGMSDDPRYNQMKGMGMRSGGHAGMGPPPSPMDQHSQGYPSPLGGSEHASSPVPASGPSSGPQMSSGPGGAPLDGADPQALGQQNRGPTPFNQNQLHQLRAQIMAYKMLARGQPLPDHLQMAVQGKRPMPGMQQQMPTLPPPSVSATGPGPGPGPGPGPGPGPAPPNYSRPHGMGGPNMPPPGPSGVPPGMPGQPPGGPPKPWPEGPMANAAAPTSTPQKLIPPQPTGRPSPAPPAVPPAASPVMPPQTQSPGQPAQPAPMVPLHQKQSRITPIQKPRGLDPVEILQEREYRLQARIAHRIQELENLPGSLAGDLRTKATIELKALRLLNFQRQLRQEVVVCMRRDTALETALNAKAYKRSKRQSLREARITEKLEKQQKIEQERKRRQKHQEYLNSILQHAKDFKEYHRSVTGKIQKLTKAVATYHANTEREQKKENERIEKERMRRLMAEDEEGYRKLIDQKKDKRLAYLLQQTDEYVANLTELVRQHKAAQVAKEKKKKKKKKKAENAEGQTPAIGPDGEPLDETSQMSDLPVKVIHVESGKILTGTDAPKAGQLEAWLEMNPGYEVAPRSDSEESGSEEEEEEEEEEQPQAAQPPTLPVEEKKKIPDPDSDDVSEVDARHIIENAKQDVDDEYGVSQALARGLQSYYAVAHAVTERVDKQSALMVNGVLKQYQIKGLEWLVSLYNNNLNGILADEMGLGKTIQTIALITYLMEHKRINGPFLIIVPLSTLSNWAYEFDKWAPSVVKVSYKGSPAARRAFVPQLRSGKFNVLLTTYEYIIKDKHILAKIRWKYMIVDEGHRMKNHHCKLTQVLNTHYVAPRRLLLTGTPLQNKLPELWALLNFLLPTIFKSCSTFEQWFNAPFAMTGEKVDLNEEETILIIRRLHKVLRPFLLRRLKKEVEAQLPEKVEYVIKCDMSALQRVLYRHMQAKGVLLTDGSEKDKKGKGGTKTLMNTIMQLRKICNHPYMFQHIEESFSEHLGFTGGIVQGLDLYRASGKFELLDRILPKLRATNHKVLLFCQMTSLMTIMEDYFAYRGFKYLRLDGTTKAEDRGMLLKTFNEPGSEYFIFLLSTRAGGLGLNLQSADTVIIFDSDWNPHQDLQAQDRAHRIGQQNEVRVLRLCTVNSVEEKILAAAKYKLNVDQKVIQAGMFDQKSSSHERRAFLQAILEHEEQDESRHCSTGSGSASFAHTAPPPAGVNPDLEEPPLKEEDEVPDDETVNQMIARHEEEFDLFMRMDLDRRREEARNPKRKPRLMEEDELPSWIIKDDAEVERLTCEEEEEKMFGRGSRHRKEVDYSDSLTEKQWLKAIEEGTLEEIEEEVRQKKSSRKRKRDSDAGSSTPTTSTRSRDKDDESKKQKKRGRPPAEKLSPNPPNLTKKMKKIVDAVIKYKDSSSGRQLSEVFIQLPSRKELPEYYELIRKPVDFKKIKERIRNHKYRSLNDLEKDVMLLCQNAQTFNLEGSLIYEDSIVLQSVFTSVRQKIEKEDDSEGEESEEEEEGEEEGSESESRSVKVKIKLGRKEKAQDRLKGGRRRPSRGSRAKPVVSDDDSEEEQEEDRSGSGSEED
# ASSAY: SMARCA4 HiBiT degradation assay in HeLa cells
# Type: cell-based
# PROTOCOL_CONDITIONS: 18 hours incubation, Nano-Glo HiBiT Lytic detection
Would you mind telling me the reported DC50 of each entry?

Task: Return reported DC50; argument: O=C1CCC(c2ccc(C3CCN(Cc4ccc(O[C@H]5CN6c7cc(-c8ccccc8O)nnc7NC[C@@]6(C(F)F)C5)nc4)CC3)cc2)C(=O)N1 (stereo partly drawn) [Example 15]
Result: < 0.1 µM

Task: Return reported DC50; argument: C[C@@H]1CN(CC2CCN(c3ccc4ncn(C5CCC(=O)NC5=O)c(=O)c4c3)CC2)C[C@H](C)N1C(=O)N1CCN2c3cc(-c4ccccc4O)nnc3NC[C@H]2C1 (stereo partly drawn) [Example 2]
Result: 0.1 to 1 µM

Task: Return reported DC50; argument: CC[C@]12CNc3nnc(-c4ccccc4O)cc3N1C[C@H](Oc1ccc(CN3CCN(c4ccc(NC5CCC(=O)NC5=O)cc4F)CC3)cn1)C2 (stereo partly drawn) [Example 11]
Result: < 0.1 µM

Task: Return reported DC50; argument: C[C@@H]1CN(CC2CCN(c3ccnc(C(=O)NC4CCC(=O)NC4=O)c3)CC2)C[C@H](C)N1C(=O)N1CCN2c3cc(-c4ccccc4O)nnc3NC[C@H]2C1 (stereo partly drawn) [Example 7]
Result: > 1 µM

Task: Return reported DC50; argument: C[C@@H]1CN(CC2CCN(c3ccc4cn(C5CCC(=O)NC5=O)nc4c3)CC2)C[C@H](C)N1C(=O)N1CCN2c3cc(-c4ccccc4O)nnc3NC[C@H]2C1 (stereo partly drawn) [Example 4]
Result: < 0.1 µM

Task: Return reported DC50; argument: CC[C@]12CNc3nnc(-c4ccccc4O)cc3N1C[C@H](Oc1ccc(CN3CCN(c4ccc(N5CCC(=O)NC5=O)cc4)CC3)cn1)C2 [Example 9]
Result: < 0.1 µM

* * *

Would you mind telling me the reported Dmax of each entry?
# ASSAY_TARGET: SMARCA2 (Homo sapiens, UniProt P51531)
# Construct: SMARCA2-HiBiT knock-in Hela monoclonal cell (CS302366) and SMARCA4-HiBiT knock-in Hela monoclonal cell (CS3023226) were purchased from Promega; host or cells: HeLa SMARCA2-HiBiT knock-in monoclonal cells (heterozygous knock-in)
# Sequence (P51531 whole entry): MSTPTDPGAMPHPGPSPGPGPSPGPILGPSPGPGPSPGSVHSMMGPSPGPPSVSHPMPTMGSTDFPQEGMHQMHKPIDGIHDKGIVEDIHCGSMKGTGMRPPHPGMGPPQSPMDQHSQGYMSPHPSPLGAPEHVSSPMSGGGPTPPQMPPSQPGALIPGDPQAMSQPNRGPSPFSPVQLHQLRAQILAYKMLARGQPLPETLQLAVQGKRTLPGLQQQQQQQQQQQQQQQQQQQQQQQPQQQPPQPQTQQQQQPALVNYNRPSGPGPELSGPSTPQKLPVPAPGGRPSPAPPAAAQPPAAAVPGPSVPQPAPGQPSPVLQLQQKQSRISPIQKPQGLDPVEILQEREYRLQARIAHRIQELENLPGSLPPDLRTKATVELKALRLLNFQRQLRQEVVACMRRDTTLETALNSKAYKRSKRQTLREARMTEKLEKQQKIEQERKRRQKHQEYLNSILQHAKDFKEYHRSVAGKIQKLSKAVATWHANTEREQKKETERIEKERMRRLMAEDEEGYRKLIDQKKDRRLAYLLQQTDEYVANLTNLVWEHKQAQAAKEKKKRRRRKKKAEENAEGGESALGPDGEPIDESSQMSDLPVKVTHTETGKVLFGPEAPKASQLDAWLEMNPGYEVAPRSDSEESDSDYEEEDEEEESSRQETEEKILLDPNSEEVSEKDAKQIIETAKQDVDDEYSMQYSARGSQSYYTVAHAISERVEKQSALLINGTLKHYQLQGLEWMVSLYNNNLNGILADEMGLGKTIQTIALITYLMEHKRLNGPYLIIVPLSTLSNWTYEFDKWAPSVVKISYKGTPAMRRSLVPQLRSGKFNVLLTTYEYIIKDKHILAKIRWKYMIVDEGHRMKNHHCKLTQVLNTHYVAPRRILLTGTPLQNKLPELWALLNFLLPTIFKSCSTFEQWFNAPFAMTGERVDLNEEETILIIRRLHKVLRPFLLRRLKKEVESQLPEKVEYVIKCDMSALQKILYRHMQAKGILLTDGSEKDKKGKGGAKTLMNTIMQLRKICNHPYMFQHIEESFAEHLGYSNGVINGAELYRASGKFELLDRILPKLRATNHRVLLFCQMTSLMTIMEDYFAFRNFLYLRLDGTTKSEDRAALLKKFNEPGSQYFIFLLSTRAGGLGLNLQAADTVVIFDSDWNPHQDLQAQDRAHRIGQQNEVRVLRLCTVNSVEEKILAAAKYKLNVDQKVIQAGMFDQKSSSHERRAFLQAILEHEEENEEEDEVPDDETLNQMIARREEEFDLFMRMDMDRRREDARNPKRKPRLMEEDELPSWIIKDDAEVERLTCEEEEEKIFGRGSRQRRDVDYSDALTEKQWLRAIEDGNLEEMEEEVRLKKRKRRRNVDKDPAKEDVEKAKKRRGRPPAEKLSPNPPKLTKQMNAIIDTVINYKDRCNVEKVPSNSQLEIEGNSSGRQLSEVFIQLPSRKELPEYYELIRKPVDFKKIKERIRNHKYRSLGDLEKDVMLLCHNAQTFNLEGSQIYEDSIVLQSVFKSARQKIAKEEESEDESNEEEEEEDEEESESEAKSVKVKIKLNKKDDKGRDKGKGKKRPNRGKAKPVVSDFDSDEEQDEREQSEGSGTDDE
# ASSAY: SMARCA2 HiBiT degradation assay in HeLa cells
# Assay type: cell-based
# PROTOCOL_CONDITIONS: 18 hours incubation, Nano-Glo HiBiT Lytic detection

Task: Field: Dmax (SMARCA2 (Homo sapiens, UniProt P51531)). Entry: `Cn1nc(N2CCC(=O)NC2=O)c2ccc(N3CCC(CN4C[C@@H]5[C@H](C4)[C@H]5CN4CCN5c6cc(-c7ccccc7O)nnc6NC[C@H]5C4)CC3)cc21`
Result: 50 to 75%

Task: Field: Dmax (SMARCA2 (Homo sapiens, UniProt P51531)). Entry: CC[C@]12CNc3nnc(-c4ccccc4O)cc3N1C[C@H](Oc1ccc(CN3CCN(c4ccc(C(=O)NC5CCC(=O)NC5=O)c(F)c4)CC3)cn1)C2 (stereo partly drawn)
Result: < 50%

Task: Field: Dmax (SMARCA2 (Homo sapiens, UniProt P51531)). Entry: O=C1CCC(n2ncc3ccc(N4CCC(CN5C[C@@H]6[C@H](C5)[C@H]6CN5CCN6c7cc(-c8ccccc8O)nnc7NC[C@H]6C5)CC4)cc32)C(=O)N1 (stereo partly drawn)
Result: < 50%

Task: Field: Dmax (SMARCA2 (Homo sapiens, UniProt P51531)). Entry: CC[C@]12CNc3nnc(-c4ccccc4O)cc3N1C[C@H](Oc1ccc(CN3CCN(c4ccc(NC5CCC(=O)NC5=O)cc4)CC3)cn1)C2 (stereo partly drawn)
Result: > 75%

Task: Field: Dmax (SMARCA2 (Homo sapiens, UniProt P51531)). Entry: C[C@@H]1CN(CC2CCN(c3ccc4cnn(C5CCC(=O)NC5=O)c4c3)CC2)C[C@H](C)N1C(=O)N1CCN2c3cc(-c4ccccc4O)nnc3NC[C@H]2C1 (stereo partly drawn)
Result: < 50%

Task: Field: Dmax (SMARCA2 (Homo sapiens, UniProt P51531)). Entry: CC[C@]12CNc3nnc(-c4ccccc4O)cc3N1C[C@H](Oc1ccc(CN3CCN(c4ccc(C(=O)NC5CCC(=O)NC5=O)cc4)CC3)cn1)C2 (stereo partly drawn)
Result: 50 to 75%

* * *

# ASSAY_TARGET: SMARCA2 (Homo sapiens)
# Construct: SMARCA2-HiBiT knock-in Hela monoclonal cell (CS302366) and SMARCA4-HiBiT knock-in Hela monoclonal cell (CS3023226) were purchased from Promega; host or cells: HeLa SMARCA2-HiBiT knock-in monoclonal cells (heterozygous knock-in)
# ASSAY: SMARCA2 HiBiT degradation assay in HeLa cells
# Format: cell-based
# PROTOCOL_CONDITIONS: 18 hours incubation, Nano-Glo HiBiT Lytic detection
READOUT_NAME: Dmax

Task: Return reported Dmax; argument: `CC[C@]12CNc3nnc(-c4ccccc4O)cc3N1C[C@H](Oc1ccc(CN3CCN(c4ccc(N5CCC(=O)NC5=O)cc4)CC3)cn1)C2`
Result: < 50%

Task: Return reported Dmax; argument: C[C@@H]1CN(CC2CCN(c3ccc4ncn(C5CCC(=O)NC5=O)c(=O)c4c3)CC2)C[C@H](C)N1C(=O)N1CCN2c3cc(-c4ccccc4O)nnc3NC[C@H]2C1 (stereo partly drawn)
Result: 50 to 75%

Task: Return reported Dmax; argument: CC[C@]12CNc3nnc(-c4ccccc4O)cc3N1C[C@H](Oc1ccc(CN3CCN(c4ccc(NC5CCC(=O)NC5=O)cc4F)CC3)cn1)C2 (stereo partly drawn)
Result: > 75%

Task: Return reported Dmax; argument: O=C1CCC(c2ccc(C3CCN(Cc4ccc(O[C@H]5CN6c7cc(-c8ccccc8O)nnc7NC[C@@]6(C(F)F)C5)nc4)CC3)cc2)C(=O)N1 (stereo partly drawn)
Result: 50 to 75%

Task: Return reported Dmax; argument: C[C@@H]1CN(CC2CCN(c3ccnc(C(=O)NC4CCC(=O)NC4=O)c3)CC2)C[C@H](C)N1C(=O)N1CCN2c3cc(-c4ccccc4O)nnc3NC[C@H]2C1 (stereo partly drawn)
Result: 50 to 75%

Task: Return reported Dmax; argument: CC[C@]12CNc3nnc(-c4ccccc4O)cc3N1C[C@H](Oc1ccc(CN3CCN(c4ccc(C5CCC(=O)NC5=O)cc4)CC3)cn1)C2 (stereo partly drawn)
Result: > 75%

Task: Return reported Dmax; argument: C[C@@H]1CN(CC2CCN(c3ccc4cn(C5CCC(=O)NC5=O)nc4c3)CC2)C[C@H](C)N1C(=O)N1CCN2c3cc(-c4ccccc4O)nnc3NC[C@H]2C1 (stereo partly drawn)
Result: 50 to 75%

Task: Return reported Dmax; argument: CC[C@@]12CNc3nnc(-c4ccccc4O)cc3N1C[C@H](Oc1ccc(CN3CCC(c4ccc(C5CCC(=O)NC5=O)cc4)CC3)cn1)C2 (stereo partly drawn)
Result: > 75%

Task: Return reported Dmax; argument: C[C@@H]1CN(CC2CCN(c3ccc4c(=O)n(C5CCC(=O)NC5=O)ncc4c3)CC2)C[C@H](C)N1C(=O)N1CCN2c3cc(-c4ccccc4O)nnc3NC[C@H]2C1 (stereo partly drawn)
Result: 50 to 75%
